Origin of measurements: ChEMBL document CHEMBL4052586

Measured pKi on Cathepsin G (Homo sapiens) follows.
Sequence (P08311 whole entry): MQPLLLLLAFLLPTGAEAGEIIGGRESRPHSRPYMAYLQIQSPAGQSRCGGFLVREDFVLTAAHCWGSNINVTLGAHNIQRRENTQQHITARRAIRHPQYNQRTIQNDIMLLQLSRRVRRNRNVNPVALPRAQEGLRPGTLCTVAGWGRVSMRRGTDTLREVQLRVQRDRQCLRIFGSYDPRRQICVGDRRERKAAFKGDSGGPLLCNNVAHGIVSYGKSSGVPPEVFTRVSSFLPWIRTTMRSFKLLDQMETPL
Positions of bridges follow the written chain, without caps; N, C: chain ends. Non-standard residues stand in square brackets, D forms with d. Residues, ends and D or L forms follow the SMILES beside them. ξ: configuration not given here. Phe(4-guanidino) = N=C(N)Nc1ccc(C[C@H](N)C(=O)O)cc1; ξNle = CCCCC(N)C(=O)O
FYI, pKi means -log10 of a concentration in mol per litre.

(Q) Which pKi reading was recorded for the compound CCCCC1NC(=O)[C@@H]2CSSC[C@H](NC(=O)[C@H]([C@@H](C)CC)NC(=O)[C@@H]3CCCN3C(=O)[C@@H]3CCCN3C(=O)[C@H]([C@@H](C)CC)NC(=O)[C@H](CO)NC(=O)[C@H](Cc3ccccc3)NC1=O)C(=O)N[C@@H](Cc1ccccc1)C(=O)N1CCC[C@H]1C(=O)N[C@@H](CC(N)=O)C(=O)NCC(=O)N[C@@H]([C@@H](C)O)C(=O)N2 (stereo not given in full) (cyclo(CFPNGTC[ξNle]FSIPPI); disulfide 1-7) ?
(A) 9.05

(Q) Requested read-out: pKi. Entry: CC[C@H](C)[C@@H]1NC(=O)[C@@H]2CCCN2C(=O)[C@@H]2CCCN2C(=O)[C@H](CC(=O)O)NC(=O)[C@H](CO)NC(=O)[C@H](CCCNC(=N)N)NC(=O)[C@H]([C@@H](C)O)NC(=O)[C@@H]2CSSC[C@H](NC1=O)C(=O)N[C@@H](CC(N)=O)C(=O)N1CCC[C@H]1C(=O)N[C@@H](CC(N)=O)C(=O)NCC(=O)N[C@@H]([C@@H](C)O)C(=O)N2 (cyclo(CNPNGTCTRSDPPI); disulfide 1-7)
(A) 7.92

(Q) // query pKi value for entry CC[C@H](C)[C@@H]1NC(=O)[C@@H]2CCCN2C(=O)[C@@H]2CCCN2C(=O)[C@H]([C@@H](C)CC)NC(=O)[C@H](CO)NC(=O)[C@H](CCCNC(=N)N)NC(=O)[C@H]([C@@H](C)O)NC(=O)[C@@H]2CSSC[C@H](NC1=O)C(=O)N[C@@H](CC(N)=O)C(=O)N1CCC[C@H]1C(=O)N[C@@H](CC(N)=O)C(=O)NCC(=O)N[C@@H]([C@@H](C)O)C(=O)N2 (cyclo(CNPNGTCTRSIPPI); disulfide 1-7)
(A) 6.31

(Q) Any idea what pKi was measured for CCCCC1NC(=O)[C@@H]2CSSC[C@H](NC(=O)[C@H]([C@@H](C)CC)NC(=O)[C@@H]3CCCN3C(=O)[C@@H]3CCCN3C(=O)[C@H](CC(=O)O)NC(=O)[C@H](CO)NC(=O)[C@H](Cc3ccc(NC(=N)N)cc3)NC1=O)C(=O)N[C@@H](Cc1ccccc1)C(=O)N1CCC[C@H]1C(=O)N[C@@H](CC(N)=O)C(=O)NCC(=O)N[C@@H]([C@@H](C)O)C(=O)N2 (stereo not given in full) (cyclo(CFPNGTC[ξNle][Phe(4-guanidino)]SDPPI); disulfide 1-7) ?
(A) 8.80

(Q) // returns reported pKi for input CCCCC1NC(=O)[C@@H]2CSSC[C@H](NC(=O)[C@H]([C@@H](C)CC)NC(=O)[C@@H]3CCCN3C(=O)[C@@H]3CCCN3C(=O)[C@H](CC(=O)O)NC(=O)[C@H](CO)NC(=O)[C@H](Cc3ccccc3)NC1=O)C(=O)N[C@@H](Cc1ccccc1)C(=O)N1CCC[C@H]1C(=O)N[C@@H](CC(N)=O)C(=O)NCC(=O)N[C@@H]([C@@H](C)O)C(=O)N2 (stereo not given in full) (cyclo(CFPNGTC[ξNle]FSDPPI); disulfide 1-7)
(A) 8.77
